# run.description: Approximate solubility determined by visual observation
# Assay type: physicochemical
# experimental.parameters: ethanol, organic solvent or mixture, solvent Ethanol, read-out: Solubility of Form F
readout.label: solubility

Query N#C[C@H](C[C@@H]1CCCNC1=O)NC(=O)[C@H](CC1CC1)NC(=O)c1cc2cccc(Cl)c2[nH]1 [Form F, hydrate] yields solubility of > 7 mg/mL

----------
# run.description: Approximate solubility determined by visual observation
# Assay type: physicochemical
# experimental.parameters: methanol/dichloromethane (1/2), organic solvent or mixture, solvent Methanol/Dichloromethane (1/2), read-out: Solubility of Form C
readout.label: solubility

Query N#C[C@H](C[C@@H]1CCCNC1=O)NC(=O)[C@H](CC1CC1)NC(=O)c1cc2cccc(Cl)c2[nH]1 [Form C] yields solubility of > 28 mg/mL

----------
# run.description: Approximate solubility determined by visual observation
# Assay type: physicochemical
# experimental.parameters: methanol/dichloromethane (1/1), organic solvent or mixture, solvent Methanol/Dichloromethane (1/1), read-out: Solubility of Form F
readout.label: solubility

Query N#C[C@H](C[C@@H]1CCCNC1=O)NC(=O)[C@H](CC1CC1)NC(=O)c1cc2cccc(Cl)c2[nH]1 [Form F, hydrate] yields solubility of > 47 mg/mL

----------
# run.description: Approximate solubility determined by visual observation
# Assay type: physicochemical
# experimental.parameters: acetone, organic solvent or mixture, solvent Acetone, read-out: Solubility of Form C
readout.label: solubility

Query N#C[C@H](C[C@@H]1CCCNC1=O)NC(=O)[C@H](CC1CC1)NC(=O)c1cc2cccc(Cl)c2[nH]1 [Form C] yields solubility of < 2000 µg/mL

----------
# run.description: Approximate solubility determined by visual observation
# Assay type: physicochemical
# experimental.parameters: methanol/dichloromethane (2/1), organic solvent or mixture, solvent Methanol/Dichloromethane (2/1), read-out: Solubility of Form F
readout.label: solubility

Query N#C[C@H](C[C@@H]1CCCNC1=O)NC(=O)[C@H](CC1CC1)NC(=O)c1cc2cccc(Cl)c2[nH]1 [Form F, hydrate] yields solubility of > 19 mg/mL

----------
# run.description: Approximate solubility determined by visual observation
# Format: physicochemical
# experimental.parameters: ethanol, organic solvent or mixture, solvent Ethanol, read-out: Solubility of Form C
readout.label: solubility

Query N#C[C@H](C[C@@H]1CCCNC1=O)NC(=O)[C@H](CC1CC1)NC(=O)c1cc2cccc(Cl)c2[nH]1 [Form C] yields solubility of > 2000 µg/mL

----------
# run.description: Approximate solubility determined by visual observation
# Type: physicochemical
# experimental.parameters: methanol/dichloromethane (1/1), organic solvent or mixture, solvent Methanol/Dichloromethane (1/1), read-out: Solubility of Form C
readout.label: solubility

Query N#C[C@H](C[C@@H]1CCCNC1=O)NC(=O)[C@H](CC1CC1)NC(=O)c1cc2cccc(Cl)c2[nH]1 [Form C] yields solubility of > 23 mg/mL

----------
# run.description: Approximate solubility determined by visual observation
# Format: physicochemical
# experimental.parameters: methanol/dichloromethane (1/2), organic solvent or mixture, solvent Methanol/Dichloromethane (1/2), read-out: Solubility of Form F
readout.label: solubility

Query N#C[C@H](C[C@@H]1CCCNC1=O)NC(=O)[C@H](CC1CC1)NC(=O)c1cc2cccc(Cl)c2[nH]1 [Form F, hydrate] yields solubility of > 58 mg/mL

----------
# run.description: Approximate solubility determined by visual observation
# Assay type: physicochemical
# experimental.parameters: methanol, organic solvent or mixture, solvent Methanol, read-out: Solubility of Form C
readout.label: solubility

Query N#C[C@H](C[C@@H]1CCCNC1=O)NC(=O)[C@H](CC1CC1)NC(=O)c1cc2cccc(Cl)c2[nH]1 [Form C] yields solubility of > 9000 µg/mL

Data credit: patent US20240208933A1
